Tested on: cytochrome c
Type: cell-based, mouse
measurement-conditions: composite Z-score vs DMSO; Conc 20 μM
Where a SMILES comes first, the peptide text is derived from it.
measured-metric: cyt c

# example entries with known answers
molecule: COc1cc([C@@H]2c3cc4c(cc3[C@@H](O[C@@H]3O[C@@H]5CO[C@@H](C)O[C@H]5[C@H](O)[C@H]3O)[C@H]3COC(=O)[C@H]23)OCO4)cc(OC)c1O [etoposide]
target-or-system: cytochrome c
recorded-result: −0.491
//
molecule: COc1cc(-c2coc3cc(OCc4ccccc4)c(OC)c(O)c3c2=O)cc(OCc2ccccc2)c1OC
target-or-system: cytochrome c
recorded-result: 0.012
//
molecule: CC(C)=CCC[C@](C)(O)C1CC=C(C)CC1 (stereo partly shown)
target-or-system: cytochrome c
recorded-result: 0.738
//
molecule: COc1cc(O)c(C(=O)/C=C/c2ccccc2)c(OC)c1
target-or-system: cytochrome c
recorded-result: 0.708
//
molecule: COc1ccc2c(c1OC)C(=O)O[C@@H]2[C@H]1c2cc3c(cc2CCN1C)OCO3 [1s,9r-hydrastine]
target-or-system: cytochrome c
recorded-result: 0.359
//
molecule: NNC(=O)c1ccncc1.Nc1ccc(C(=O)O)c(O)c1
target-or-system: cytochrome c
recorded-result: 0.590
//
molecule: CC(=O)O[C@H]1CC[C@@]2(C)[C@H](CC[C@@H]3[C@@H]2CC[C@]2(C)[C@@H](C4=CC(=O)OC4)[C@@H](OC(C)=O)C[C@]32O)C1 [gitoxigenin diacetate]
target-or-system: cytochrome c
recorded-result: 0.684
//
molecule: C[N+]1(CCCCC[N+]2(C)CCCC2)CCCC1
target-or-system: cytochrome c
recorded-result: −0.703

State, in one line, measured cyt c of C[C@H](N)[C@H](O)c1cccc(O)c1
0.327

State, in one line, measured cyt c of CC(C)C[C@H](NC(=O)CN)C(=O)N[C@@H](Cc1ccccc1)C(=O)O [glycylleucylphenylalanine] (H-Gly-Leu-Phe-OH)
−0.182

State, in one line, measured cyt c of COc1cc2c3cc1Oc1c(OC)c(OC)cc4c1[C@@H](Cc1ccc(O)c(c1)Oc1ccc(cc1)C[C@@H]3N(C)CC2)N(C)CC4
0.445

State, in one line, measured cyt c of CC(=O)C1=C(O)[C@@H]2[C@H]3c4c[nH]c5cccc(c45)C[C@H]3C(C)(C)N2C1=O
0.033

State, in one line, measured cyt c of Nc1nc2c(ncn2[C@H]2C[C@H](O)[C@@H](CO)O2)c(=O)[nH]1
0.695
